procedure_text: Phase I plasma pharmacokinetics in patients
Assay type: in vivo, human
condition_summary: human, plasma, po, 200 mg, Day 1, 200 mg b.i.d. p.o. (n=6), median, course 1; read-out: t1/2

# molecule, half-life
records = [
    ("CC[C@H](CO)Nc1nc(NCc2ccccc2)c2ncn(C(C)C)c2n1 [Seliciclib]", "2.48 h"),
]

---

procedure_text: Phase I plasma pharmacokinetics in patients
Assay type: in vivo, human
condition_summary: human, plasma, po, 200 mg, Day 7, 200 mg b.i.d. p.o. (n=6), mean, course 1
measurement_kind: AUC(0-inf) (ng·h/mL)

# molecule, measurement_kind, data_value
rows = [
    ("CC[C@H](CO)Nc1nc(NCc2ccccc2)c2ncn(C(C)C)c2n1 [Seliciclib]", "AUC(0-inf)", 4250),
]

---

procedure_text: Phase I plasma pharmacokinetics in patients
Type: in vivo, human
condition_summary: human, plasma, po, 100 mg, Day 1, 100 mg b.i.d. p.o. (n=3), median, course 1
measurement_kind: AUC(0-t) (µg·h/mL)

# compound_smiles, measurement_kind, measurement_unit, data_value
data = [
    ("CC[C@H](CO)Nc1nc(NCc2ccccc2)c2ncn(C(C)C)c2n1", "AUC(0-t)", "µg·h/mL", 1.37),
]

---

procedure_text: Phase I plasma pharmacokinetics in patients
Assay type: in vivo, human
condition_summary: human, plasma, po, 100 mg, Day 7, 100 mg b.i.d. p.o. (n=3), mean, course 1; read-out: Tmax (converted)
measurement_kind: Tmax (h)

# compound_smiles, measurement_kind, data_value
data = [
    ("CC[C@H](CO)Nc1nc(NCc2ccccc2)c2ncn(C(C)C)c2n1", "Tmax", 3.17),
]

---

procedure_text: Phase I plasma pharmacokinetics in patients
Assay type: in vivo, human
condition_summary: human, plasma, po, 200 mg, Day 7, 200 mg b.i.d. p.o. (n=6), mean, course 1; read-out: Cmax

# compound_smiles, Cmax [ng/mL]
rows = [
    ("CC[C@H](CO)Nc1nc(NCc2ccccc2)c2ncn(C(C)C)c2n1", 310),
]

---

procedure_text: Phase I plasma pharmacokinetics in patients
Type: in vivo, human
condition_summary: human, plasma, po, 200 mg, Day 7, 200 mg b.i.d. p.o. (n=6), median, course 1; read-out: Tmax (converted)

# compound_smiles, Tmax / h
measured = [
    ("CC[C@H](CO)Nc1nc(NCc2ccccc2)c2ncn(C(C)C)c2n1", 1),
]

---

procedure_text: Phase I plasma pharmacokinetics in patients
Format: in vivo, human
condition_summary: human, plasma, po, 800 mg, Day 1, 800 mg b.i.d. p.o. (n=12), mean, course 1
measurement_kind: AUC(0-inf)

# compound_smiles, data_value
data = [
    ("CC[C@H](CO)Nc1nc(NCc2ccccc2)c2ncn(C(C)C)c2n1", "53 µg·h/mL"),
]
